Reference source for all entries: patent US8318778B2

Target: recombinant human glucokinase (Homo sapiens, UniProt P35557)
Construct: N-terminal His-tag ((His)8-VEQILA . . . Q466)
Sequence (P35557 16-465): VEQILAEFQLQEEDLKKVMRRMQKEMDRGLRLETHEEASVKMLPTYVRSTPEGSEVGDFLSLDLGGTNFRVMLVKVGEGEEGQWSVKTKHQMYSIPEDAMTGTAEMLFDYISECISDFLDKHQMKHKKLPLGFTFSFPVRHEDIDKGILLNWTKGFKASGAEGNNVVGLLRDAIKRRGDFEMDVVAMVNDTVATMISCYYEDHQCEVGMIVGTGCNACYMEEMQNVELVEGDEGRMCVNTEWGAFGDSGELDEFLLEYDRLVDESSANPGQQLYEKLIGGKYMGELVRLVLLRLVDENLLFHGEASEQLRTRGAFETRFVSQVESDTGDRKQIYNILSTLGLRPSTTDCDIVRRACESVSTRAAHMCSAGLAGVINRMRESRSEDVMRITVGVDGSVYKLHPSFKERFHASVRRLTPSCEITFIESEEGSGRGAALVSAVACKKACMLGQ
Test: Glucokinase Activity Assay (I): spectrometric assay coupled to glucose 6-phosphate dehydrogenase
Details: 15 mM glucose
value kind: pEC50
Lab note: report pEC50 as minus log10 of the concentration in molar units, number only.

IN: # pEC50 lookup, item "C[C@H]1CC[C@H](N(CC(F)(F)c2ccccc2)C(=O)Nc2ncc(SCC(=O)O)s2)CC1"
OUT: 6.54
